Attribution: paper PMC3849266

# test.protocol: Biodistribution and in vivo binding specificity in PC-3 tumor-bearing BALB/c nu/nu mice
# setup.conditions: male, BALB/c nu/nu, mouse, spleen, iv, total radioactivity, male BALB/c nu/nu mice with PC-3 xenografts, 45 pmol i.v., blocked (co-injected 20 nmol non-labeled peptide), 1 h p.i.; read-out: Spleen uptake
measure: tissue uptake at 1 h (%ID/g)
Give your result in %ID/g as a bare value.

Request: Tell me tissue uptake at 1 h reported for CC(C)C[C@H](NC(=O)C[C@H](O)[C@H](CC(C)C)NC(=O)[C@H](Cc1c[nH]cn1)NC(=O)CNC(=O)[C@@H](NC(=O)[C@H](C)NC(=O)[C@H](Cc1c[nH]c2ccccc12)NC(=O)[C@H](CCC(N)=O)NC(=O)[C@@H](Cc1ccccc1)NC(=O)COCCOCCNC(=O)CN1CCN(CC(=O)O)CCN(CC(=O)O)CC1)C(C)C)C(N)=O [[^18F]AlF-NOTA-P2-RM26]
Response: 0.7

----------
# test.protocol: Biodistribution and in vivo binding specificity in PC-3 tumor-bearing BALB/c nu/nu mice
# setup.conditions: male, BALB/c nu/nu, mouse, blood, iv, 45 pmol, total radioactivity, male BALB/c nu/nu mice with PC-3 xenografts, 45 pmol i.v., 6 h p.i.; read-out: Blood uptake
measure: tissue uptake at 6 h
Express your answer as a number followed by its unit.

Request: Tell me tissue uptake at 6 h reported for CC(C)C[C@H](NC(=O)C[C@H](O)[C@H](CC(C)C)NC(=O)[C@H](Cc1c[nH]cn1)NC(=O)CNC(=O)[C@@H](NC(=O)[C@H](C)NC(=O)[C@H](Cc1c[nH]c2ccccc12)NC(=O)[C@H](CCC(N)=O)NC(=O)[C@@H](Cc1ccccc1)NC(=O)COCCOCCNC(=O)CN1CCN(CC(=O)O)CCN(CC(=O)O)CC1)C(C)C)C(N)=O [[^18F]AlF-NOTA-P2-RM26]
Response: 0.023 %ID/g

----------
# test.protocol: Biodistribution and in vivo binding specificity in PC-3 tumor-bearing BALB/c nu/nu mice
# setup.conditions: male, BALB/c nu/nu, mouse, lung, iv, total radioactivity, male BALB/c nu/nu mice with PC-3 xenografts, 45 pmol i.v., blocked (co-injected 20 nmol non-labeled peptide), 1 h p.i.; read-out: Lung uptake
measure: tissue uptake at 1 h (%ID/g)
Give your result in %ID/g as a bare value.

Request: Tell me tissue uptake at 1 h reported for CC(C)C[C@H](NC(=O)C[C@H](O)[C@H](CC(C)C)NC(=O)[C@H](Cc1c[nH]cn1)NC(=O)CNC(=O)[C@@H](NC(=O)[C@H](C)NC(=O)[C@H](Cc1c[nH]c2ccccc12)NC(=O)[C@H](CCC(N)=O)NC(=O)[C@@H](Cc1ccccc1)NC(=O)COCCOCCNC(=O)CN1CCN(CC(=O)O)CCN(CC(=O)O)CC1)C(C)C)C(N)=O [[^18F]AlF-NOTA-P2-RM26]
Response: 0.4

----------
# test.protocol: Biodistribution and in vivo binding specificity in PC-3 tumor-bearing BALB/c nu/nu mice
# setup.conditions: male, BALB/c nu/nu, mouse, liver, iv, 45 pmol, total radioactivity, male BALB/c nu/nu mice with PC-3 xenografts, 45 pmol i.v., 3 h p.i.; read-out: Liver uptake
measure: tissue uptake at 3 h (%ID/g)
Give your result in %ID/g as a bare value.

Request: Tell me tissue uptake at 3 h reported for CC(C)C[C@H](NC(=O)C[C@H](O)[C@H](CC(C)C)NC(=O)[C@H](Cc1c[nH]cn1)NC(=O)CNC(=O)[C@@H](NC(=O)[C@H](C)NC(=O)[C@H](Cc1c[nH]c2ccccc12)NC(=O)[C@H](CCC(N)=O)NC(=O)[C@@H](Cc1ccccc1)NC(=O)COCCOCCNC(=O)CN1CCN(CC(=O)O)CCN(CC(=O)O)CC1)C(C)C)C(N)=O [[^18F]AlF-NOTA-P2-RM26]
Response: 0.45
